Each entry below carries its reported MIC.
test system: Staphylococcus aureus; assay: In vitro antimicrobial activity against Staphylococcus aureus 503; type: functional
Please reply with the bare figure in µg/mL and do not write the unit itself.

CO/N=C(/C(=O)N[C@@H]1C(=O)N2C(C(=O)[O-])=C(C[n+]3cccc(-c4cc(C(N)=O)nn4C)c3)CS[C@H]12)c1csc(N)n1
0.391

Recorded MIC (compound `CO/N=C(/C(=O)N[C@@H]1C(=O)N2C(C(=O)[O-])=C(C[n+]3cccc(-c4cc(CO)nn4C)c3)CS[C@H]12)c1csc(N)n1` ): 0.781

Recorded MIC (compound `CO/N=C(/C(=O)N[C@@H]1C(=O)N2C(C(=O)[O-])=C(C[n+]3cccc(-c4cc(C(N)=O)nn4CCO)c3)CS[C@H]12)c1csc(N)n1` ): 0.781

Recorded MIC (compound `CO/N=C(/C(=O)N[C@@H]1C(=O)N2C(C(=O)[O-])=C(C[n+]3cccc(-c4cc(CO)nn4CCO)c3)CS[C@H]12)c1csc(N)n1` ): 1.56

Recorded MIC (compound `CO/N=C(/C(=O)N[C@@H]1C(=O)N2C(C(=O)[O-])=C(C[n+]3cccc(-c4cc(N)n(C)n4)c3)CS[C@H]12)c1csc(N)n1` ): 0.391

Recorded MIC (compound `CO/N=C(/C(=O)N[C@@H]1C(=O)N2C(C(=O)[O-])=C(C[n+]3cccc(-c4cc(N)[nH]n4)c3)CS[C@H]12)c1csc(N)n1` ): 0.195

---

system: Escherichia coli; assay: In vitro antimicrobial activity against Escherichia coli DC 2; type: functional
readout_name: MIC (µg/mL)
Please reply with the bare figure in µg/mL and do not write the unit itself.

CO/N=C(/C(=O)N[C@@H]1C(=O)N2C(C(=O)[O-])=C(C[n+]3cccc(-c4cc[nH]n4)c3)CS[C@H]12)c1csc(N)n1
0.049
CO/N=C(/C(=O)N[C@@H]1C(=O)N2C(C(=O)[O-])=C(C[n+]3cccc(-c4cc(N)n(C)n4)c3)CS[C@H]12)c1csc(N)n1
0.013
CC(C)(O/N=C(\C(=O)N[C@@H]1C(=O)N2C(C(=O)[O-])=C(C[n+]3ccccc3)CS[C@H]12)c1csc(N)n1)C(=O)O
0.098
CO/N=C(/C(=O)N[C@@H]1C(=O)N2C(C(=O)[O-])=C(C[n+]3cccc(-c4cc(N)[nH]n4)c3)CS[C@H]12)c1csc(N)n1
0.013
CO/N=C(/C(=O)N[C@@H]1C(=O)N2C(C(=O)[O-])=C(C[n+]3cccc(-c4cc(C(N)=O)[nH]n4)c3)CS[C@H]12)c1csc(N)n1
0.025

Recorded MIC (compound `CO/N=C(/C(=O)N[C@@H]1C(=O)N2C(C(=O)[O-])=C(C[n+]3cccc(-c4cc(CO)[nH]n4)c3)CS[C@H]12)c1csc(N)n1` ): 0.025

---

tested on: Streptococcus pyogenes; test: In vitro antimicrobial activity against Streptococcus pyogenes A 308; type: functional
Each entry below carries its reported MIC.
Please reply with the bare figure in µg/mL and do not write the unit itself.

Below are worked cases with known answers.
CO/N=C(/C(=O)N[C@@H]1C(=O)N2C(C(=O)[O-])=C(C[n+]3cccc(-c4cc[nH]n4)c3)CS[C@H]12)c1csc(N)n1
0.049
CO/N=C(/C(=O)N[C@@H]1C(=O)N2C(C(=O)[O-])=C(C[n+]3cccc(-c4cc(N)[nH]n4)c3)CS[C@H]12)c1csc(N)n1
0.007

Recorded MIC (compound `CO/N=C(/C(=O)N[C@@H]1C(=O)N2C(C(=O)[O-])=C(C[n+]3cccc(-c4cc(CO)nn4C)c3)CS[C@H]12)c1csc(N)n1` ): 0.049
